FYI, the data here is from ChEMBL document CHEMBL1136598.

Serine protease 1 (Homo sapiens, UniProt P07477) measurements of IC50, listed per entry.
Sequence (P07477 whole entry): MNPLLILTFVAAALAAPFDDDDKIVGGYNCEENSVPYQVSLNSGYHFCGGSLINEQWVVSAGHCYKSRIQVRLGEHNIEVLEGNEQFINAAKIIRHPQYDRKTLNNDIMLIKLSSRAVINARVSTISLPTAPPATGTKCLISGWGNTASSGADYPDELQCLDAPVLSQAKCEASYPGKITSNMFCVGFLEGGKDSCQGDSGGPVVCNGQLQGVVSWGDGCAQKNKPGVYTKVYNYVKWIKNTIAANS
// note: answer is a bare numeric in µM

>>> print(df.to_string())
                                   compound                       experimental_system  property_label  reported_value
0  Cc1c(S(=O)(=O)N2CCN(CC(=O)NC(CCCNC(=N)N)C(=O)c3nccs3)C(=O)C2)sc2ccc(Cl)cc12 (stereo not drawn)  Serine protease 1 (Homo sapiens, UniProt P07477)            IC50            0.02

Fill in IC50 for N=C(N)NCCC[C@@H](NC(=O)CN1CCN(S(=O)(=O)Cc2ccccc2)CC1=O)C(=O)c1nccs1 tested with Serine protease 1 (Homo sapiens, UniProt P07477).
0.033

Fill in IC50 for N=C(N)NCCCC(NC(=O)CN1CCN(S(=O)(=O)c2ccc3ccccc3c2)CC1=O)C(=O)c1nccs1 (stereo not drawn) tested with Serine protease 1 (Homo sapiens, UniProt P07477).
0.0391
